The reported numbers originate from patent US20180162947A1.

target_desc: T1, recombinant human CSF-1R (form not stated) (human, UniProt P07333 20-512, limits assumed)
T1 construct: for the ELISA no species is stated; also called recombinant CSF-1R; recombinant CSF-1R protein
assay_procedure: BIAcore, mean of 3 (fourth row, unlabelled)
observable: koff (s⁻¹)
Answer with a number only, understood to be in s⁻¹.

Task item: Data request, read-out koff, for 969gH2gL1 (antibody, human IgG4 S228P, kappa, name in Kabat numbering, V domains shown, Humanised IgG4 (S241P)/kappa; positions are Kabat; also called Ab969.g6) VH: EVTLKESGPALVKPTQTLTLTCTFSGFSLTTYGMGVGWIRQPPGKALEWLANIWWDDDKYYNPSLKNRLTISKDTSKNQVVLTMTNMDPVDTATYYCARIGPIKYPTAPYRYFDFWGQGTMVTVSS VL: DIQMTQSPSSLSASVGDRVTITCLASEDIYDNLAWYQKKPGKAPKLLIYYASSLQDGVPSRFSGSGSGTDYTLTISSLQPEDFATYFCLQDSEYPWTFGGGTKVEIKR
Reply: 8.14e-06
